In this section we review reported IC50 in NK-92 cell assay (IFNγ, 200 pM IL-21) values for a set of binders.
Assay system: recombinant cynomolgus monkey IL-21 (cynomolgus monkey (Macaca fascicularis), UniProt Q9HBE4 30-162 (human entry), limits assumed)
Sequence (Q9HBE4 other isoform, or with tags, fused parts or gaps limits assumed): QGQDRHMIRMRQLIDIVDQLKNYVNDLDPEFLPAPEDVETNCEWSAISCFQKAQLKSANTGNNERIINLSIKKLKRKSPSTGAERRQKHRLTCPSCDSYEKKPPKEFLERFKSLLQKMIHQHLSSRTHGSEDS
Measurement notes: cell-based or functional assay
Express the result in pM but write the number alone.

These recorded examples may help you get a feel for the data.
murine monoclonal antibody 9F11 (antibody, V domains shown, also called 9F11.1) VH: EVELVESGGGLVQPGGSMKLSCAASGFTFSDAWMDWVRQSPEKGLEWVAEIRSEADNHPTYYAESVKGRFTISRDDSKSSVYLQMNSLRAEDSGIYYCTEYDYEGFVHWGQGTLVTVSA VL: DIVLTQSPASLAVSLGQRATISCRASKSVSTYGYSYMHWYQQKPGQPPKLLIYLASNLESGVPARFSGSGSGTDFTLNIHPVEEEDAATYYCQHSRELPLTFGAGTKLELK; 867
K44VHa-N56Q (MEDI7169) (antibody, V domains shown) VH: QVQLVQSGAEVKKPGASVKVSCKASGYTFTDYWMHWVRQAPGQGLEWMGTIDPSDQYTIYSQNFKGRVTMTRDTSTSTVYMELSSLRSEDTAVYYCARYGFAMDYWGQGTLVTVSS VL: DIQLTQSPSSLSASVGDRVTITCRASQDISNFLNWYQQKPGKAVKLLIYYTSRLHSGVPSRFSGSGSGTDYTLTISSLQPEDFATYYCQQGHTLPRTFGGGTKVEIK; 80.8
murine monoclonal antibody 8B6 (antibody, V domains shown, also called 8B6.1) VH: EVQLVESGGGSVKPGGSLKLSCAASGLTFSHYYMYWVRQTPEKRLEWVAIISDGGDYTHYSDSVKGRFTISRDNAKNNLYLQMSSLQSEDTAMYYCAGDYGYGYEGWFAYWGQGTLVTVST VL: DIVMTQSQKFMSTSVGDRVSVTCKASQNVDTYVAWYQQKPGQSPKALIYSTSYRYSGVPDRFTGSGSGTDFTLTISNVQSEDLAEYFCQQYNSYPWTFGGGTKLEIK; 771

Prompt: Hello, please tell me recorded IC50 in NK-92 cell assay (IFNγ, 200 pM IL-21) for this one: K2Ha-N56Q (antibody, human IgG1, kappa, V domains shown) VH: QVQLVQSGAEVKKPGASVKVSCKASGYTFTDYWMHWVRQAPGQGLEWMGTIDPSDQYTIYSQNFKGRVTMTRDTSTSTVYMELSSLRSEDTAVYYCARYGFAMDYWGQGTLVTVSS VL: DIQLTQSPSSLSASVGDRVTITCRASQDISNFLNWYQQKPGKAVKLLIYYTSRLHSGVPSRFSGSGSGTDYTLTISSLQPEDFATYFCQQGHTLPRTFGGGTKVEIKR
Response: 83.4

Prompt: Hello, please tell me recorded IC50 in NK-92 cell assay (IFNγ, 200 pM IL-21) for this one: murine monoclonal antibody 19E3 (antibody, V domains shown, also called 19E3.1) VH: QVQLQQPGSELVMPGASVKMSCKASGYIFTDYWMHWVKQRPGQGLEWIGTIDPSDNYTIYSQNFKGKATLTVDESSSTAYMLLSSLTSEDSAVYFCARYGFAMDYWGQGTSVTVSS VL: DIQLTQTTSSLSASLGDRVTISCRASQDISNFLNWYQQTPDGTVKLLIYYTSRLHSGVPSRFSGSGSGTDYSLTISNLEQEDIATYFCQQGHTLPRTFGGGTKLEIK
Response: 37

Prompt: Hello, please tell me recorded IC50 in NK-92 cell assay (IFNγ, 200 pM IL-21) for this one: K44VHa6-N56Q (antibody, IgG1, V domains shown) VH: QVQLVQSGAEVKKPGASVKVSCKASGYTFTDYWMHWVRQAPGQGLEWMGTIDPSDQYTIYSQNFKGRVTMTVDESTSTVYMELSSLRSEDTAVYYCARYGFAMDYWGQGTLVTVSS VL: DIQLTQSPSSLSASVGDRVTITCRASQDISNFLNWYQQKPGKAVKLLIYYTSRLHSGVPSRFSGSGSGTDYTLTISSLQPEDFATYYCQQGHTLPRTFGGGTKVEIKR
Response: 60.3
